src = patent US20240270821A1

# target.entity: hGIPR (Homo sapiens)
# Sequence (P48546 22-466): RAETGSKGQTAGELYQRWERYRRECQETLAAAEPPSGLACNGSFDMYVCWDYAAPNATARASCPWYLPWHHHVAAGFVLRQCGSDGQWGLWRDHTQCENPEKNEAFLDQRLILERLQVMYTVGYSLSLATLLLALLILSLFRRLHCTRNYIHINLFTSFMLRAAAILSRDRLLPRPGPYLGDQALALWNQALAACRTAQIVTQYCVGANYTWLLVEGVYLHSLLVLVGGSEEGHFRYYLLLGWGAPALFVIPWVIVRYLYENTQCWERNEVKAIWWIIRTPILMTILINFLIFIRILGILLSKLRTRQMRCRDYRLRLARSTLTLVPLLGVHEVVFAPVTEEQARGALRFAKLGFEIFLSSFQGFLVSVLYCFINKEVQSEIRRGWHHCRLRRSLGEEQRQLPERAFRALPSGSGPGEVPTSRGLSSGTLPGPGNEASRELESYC
# procedure.details: Functional cAMP activity in the presence of 1% HSA
# Assay type: cell-based
# condition.details: read-out: cAMP Rel EC50, hGIPR
Starred links: 1 amine or outer side, 2 acyl side, 3 side chain; linkers in the order of their positions; H or OH if unused. Non-standard residues stand in square brackets, D forms with d. Groups on a side chain read outwards from the residue. No end group written: not given here. *: point of attachment. C18 diacid = O=C(O)CCCCCCCCCCCCCCCCC(=O)*; αMePhe(2-F) = C[C@](N)(Cc1ccccc1F)C(=O)O; γGlu = O=C(O)[C@H](CCC(=O)[*:2])N[*:1]; αMe4Pal = C[C@](N)(Cc1ccncc1)C(=O)O; αMeY = C[C@](N)(Cc1ccc(O)cc1)C(=O)O; 4Pal = N[C@@H](Cc1ccncc1)C(=O)O; αMeL = CC(C)C[C@](C)(N)C(=O)O; αMeS = C[C@](N)(CO)C(=O)O; Orn = NCCC[C@H](N)C(=O)O; AEEA = NCCOCCOCC(=O)O; Aib = CC(C)(N)C(=O)O
What EC50 was measured for each of the following?
Write down the numeric answer in nM and omit the unit.

Sample H-Y[Aib]QGT[αMePhe(2-F)]TSD[4Pal][αMeS]I[αMeL]LD[Orn]K([γGlu-γGlu-C18 diacid])AQ[αMe4Pal]EFI[dE][αMeY]LIEGGPSSGEPPPSGS-NH2 [Example 715] ; EC50 observed: 0.51

Input H-Y[Aib]QGT[αMePhe(2-F)]TSD[4Pal]SILLDKK([AEEA-γGlu-C18 diacid])AQ[Aib]AFIE[αMeY]LEEGGPSSGAPPPSGTGE-NH2 [Example 669] . Output EC50: 1.41

What the record says about Y[Aib]QGTFTSD[4Pal]SQ[αMeL]LDKK([AEEA-γGlu-C18 diacid])AQ[αMe4Pal]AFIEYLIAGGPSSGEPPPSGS-NH2 [Example 828] : EC50 is 14.9
